# System: NCI-H226 lung
# run.description: NCI tumour cell line growth inhibition, 48 h
property.label: GI50

Ask | Quick one: GI50 for CO[C@@H]1CCN(c2nccc(Nc3cc4c(C(C)C)ccc(N5CC(CS(C)(=O)=O)[C@H]5C)c4cn3)n2)C[C@@H]1F (stereo not given in full) ?
Reply | 6.17 µM

Ask | Also need "C/C=C/C/C=C/[C@H](C)C[C@H](O)[C@@H]1C[C@@H]2O[C@H]2/C=C/[C@@H]2OC(C)(C)O[C@H]2/C=C/C[C@H](C)CC(=O)O1" , thanks.
Reply | 6.08 µM

Ask | Also need "COCCOCCOCc1n(Cc2ccc3ccccc3c2)c2ccccc2[n+]1Cc1ccc2ccccc2c1" , thanks.
Reply | 0.957 µM

Ask | Also need "O=C(Nc1cccc(-n2cc(-c3ccncc3)c(-c3ccc(O)c(Cl)c3)n2)c1)c1ccc2c(c1)OCCO2" , thanks.
Reply | 12.2 µM

Ask | Also need Clc1ccc(C2CC(c3cccc(Nc4ccncc4)c3)=NN2c2ccc(Cl)cc2)cc1 (stereo not given) , thanks.
Reply | 12.4 µM

* * *

I'd be grateful if you could share measured log10 of TGI for these entries.
# Tested on: HCT-116 colon
# run.description: NCI tumour cell line growth inhibition, 48 h
Reminder: these figures are log10 of reported TGI, in µM before transformation.

Ask | Quick one: log10 of TGI for "CN(C)C(=O)OCc1nc2c(N3CCOCC3)nc(-c3ccccc3)nc2n1C" ?
Reply | -0.21

Ask | Also need O=C1C(=C2CCCC2)CCC1CN1CCCCC1 (stereo unspecified) , thanks.
Reply | 1.58

Ask | Also need C[N+](C)(C)CC1CCC(C[N+](C)(C)C)C1=O (stereo unspecified) , thanks.
Reply | 0.54

Ask | Also need "Cc1ccc(Nc2cc(Cl)c([N+](=O)[O-])cc2[N+](=O)[O-])cc1" , thanks.
Reply | 0.84

Ask | Also need "COCCOCCOCc1n(Cc2ccc3ccccc3c2)c2ccccc2[n+]1Cc1ccc2ccccc2c1" , thanks.
Reply | 0.22

Ask | Also need O=[N+]([O-])C1=Cc2cc(Cl)ccc2OC1c1cccc2ccccc12 (stereo unspecified) , thanks.
Reply | -0.45

Ask | Also need "N#Cc1ccc(/C=C(/C(=O)c2ccccc2)c2ccccc2)cc1" , thanks.
Reply | 1.05

Ask | Also need Cc1cn(C2C=CC(COP(=O)(OCc3ccc([N+](=O)[O-])o3)N(C)CCCCCl)O2)c(=O)[nH]c1=O (stereo unspecified) , thanks.
Reply | 1.32

Ask | Also need "CC[C@H](C)C1=C(OC(C)=O)[N@+]2([O-])Oc3ccc(-c4c(O)c(O)c(-c5ccc(OC(C)=O)cc5)c(OC(C)=O)c4OC(C)=O)cc3O[C@]2([C@@H](C)CC)C(=O)N1O" , thanks.
Reply | 1.29

Ask | Also need "S=C=Nc1ccc(CSc2nc3ccccc3[nH]2)cc1" , thanks.
Reply | 1.65

Ask | Also need "OB(O)c1ccccc1C#Cc1ccccc1B(O)O" , thanks.
Reply | 1.77

Ask | Also need "N#CCCN(CCC#N)c1ccc(C(N=Nc2ccc(Cl)cc2)=Nc2ccccc2)cc1" , thanks.
Reply | 1.39

Ask | Also need "Cc1cc(C)c2c(n1)S(=O)(=O)N(CCCN1CCN(c3cccc(Cl)c3)CC1)/C(=C(\O)c1ccccc1)C2=O" , thanks.
Reply | 1.97
